Consider the following compounds and their measured Residual trypsin activity readings.
- experimental target: UniProtKB P00760
- measurement description: Trypsin inhibitory activity of peptides (BApNA hydrolysis, OD405; IC50, Ki, residual activity)
- Format: biochemical
- reported conditions: peptide 0.0585 μM
Bridge positions count the residues as written; N and C are the ends. Peptide text beside a SMILES is read from it.
Please give a number only; it is taken to be in %.

Known Residual trypsin activity results, listed for orientation:
CC[C@H](C)[C@@H]1NC(=O)[C@@H]2CCCN2C(=O)[C@@H]2CCCN2C(=O)[C@H]([C@@H](C)CC)NC(=O)[C@H](CO)NC(=O)[C@H](CCCCN)NC(=O)[C@H]([C@@H](C)O)NC(=O)[C@H](C)NC(=O)[C@H](CCCNC(=N)N)NC(=O)[C@@H]2CCCN2C(=O)[C@@H](N)CSSC[C@@H](C(=O)N[C@@H](Cc2ccccc2)C(=O)O)NC1=O [BT66] (H-CPRATKSIPPICF-OH; disulfide 1-12; C-terminus assumed)    55.7
CC[C@H](C)[C@@H]1NC(=O)[C@@H]2CCCN2C(=O)[C@@H]2CCCN2C(=O)[C@H]([C@@H](C)CC)NC(=O)[C@H](CO)NC(=O)[C@H](CCCCN)NC(=O)[C@H]([C@@H](C)O)NC(=O)[C@H](Cc2ccc(O)cc2)NC(=O)[C@H](CCCNC(=N)N)NC(=O)CNC(=O)[C@@H](N)CSSC[C@@H](C(=O)N[C@@H](Cc2ccccc2)C(=O)O)NC1=O [BT53] (H-CGRYTKSIPPICF-OH; disulfide 1-12; C-terminus assumed)    84.9
CC[C@H](C)[C@@H]1NC(=O)[C@@H]2CCCN2C(=O)[C@@H]2CCCN2C(=O)[C@H]([C@@H](C)CC)NC(=O)[C@H](CO)NC(=O)[C@H](CCCCN)NC(=O)[C@H]([C@@H](C)O)NC(=O)[C@H](C)NC(=O)[C@H](CCCNC(=N)N)NC(=O)[C@H](C)NC(=O)[C@@H](N)CSSC[C@@H](C(=O)N[C@@H](Cc2ccccc2)C(=O)O)NC1=O [BT67] (H-CARATKSIPPICF-OH; disulfide 1-12)    39.9

INPUT: Lab note: need Residual trypsin activity with UniProtKB P00760 for entry CC[C@H](C)[C@@H]1NC(=O)[C@@H]2CCCN2C(=O)[C@@H]2CCCN2C(=O)[C@H]([C@@H](C)CC)NC(=O)[C@H](CO)NC(=O)[C@H](CCCCN)NC(=O)[C@H]([C@@H](C)O)NC(=O)[C@H](CCC(N)=O)NC(=O)[C@H](CCCNC(=N)N)NC(=O)CNC(=O)[C@@H](N)CSSC[C@@H](C(=O)N[C@@H](Cc2ccccc2)C(=O)O)NC1=O [BT54] (H-CGRQTKSIPPICF-OH; disulfide 1-12; C-terminus assumed) , please look it up.
OUTPUT: 58.4

====

These records show Ki for UniProtKB P00766.
Bridge positions count the residues as written; N and C are the ends. Square brackets hold non-standard residues; d marks the D form. Peptide text beside a SMILES is read from it. Hyp = O=C(O)[C@@H]1C[C@@H](O)CN1
Please give a number only; it is taken to be in µM.

INPUT: Lab note: need Ki with UniProtKB P00766 for entry CC[C@H](C)[C@@H]1NC(=O)[C@H](CO)NC(=O)[C@H](Cc2ccc(O)cc2)NC(=O)[C@H]([C@@H](C)O)NC(=O)[C@@H](NC(=O)[C@@H](N)Cc2ccccc2)CSSC[C@@H](C(=O)N[C@@H](Cc2ccc(O)cc2)C(=O)NCC(=O)O)NC(=O)[C@H](CCC(N)=O)NC(=O)[C@@H]2C[C@@H](O)CN2C(=O)[C@@H]2CCCN2C1=O [CH52] (H-FCTYSIP[Hyp]QCYG-OH; disulfide 2-10) , please look it up.
OUTPUT: 0.36

INPUT: Lab note: need Ki with UniProtKB P00766 for entry CC[C@H](C)[C@@H]1NC(=O)[C@H](CO)NC(=O)[C@H](Cc2ccc(O)cc2)NC(=O)[C@H]([C@@H](C)O)NC(=O)[C@@H](NC(=O)[C@@H](N)Cc2ccccc2)CSSC[C@@H](C(=O)N[C@@H](Cc2ccc(O)cc2)C(=O)O)NC(=O)[C@H](CCCCN)NC(=O)[C@H](C)NC(=O)[C@@H]2CCCN2C1=O [CH36] (H-FCTYSIPAKCY-OH; disulfide 2-10; N-terminus and C-terminus assumed) , please look it up.
OUTPUT: 1.39

INPUT: Lab note: need Ki with UniProtKB P00766 for entry C[C@@H]1NC(=O)[C@@H](NC(=O)[C@@H](N)Cc2ccccc2)CSSC[C@@H](C(=O)N[C@@H](CCC(N)=O)C(=O)O)NC(=O)[C@H](CCC(N)=O)NC(=O)[C@@H]2CCCN2C(=O)[C@@H]2CCCN2C(=O)[C@H](CC(N)=O)NC(=O)[C@H](CO)NC(=O)[C@H](Cc2ccc(O)cc2)NC1=O [CH43] (H-FCAYSNPPQCQ-OH; disulfide 2-10; N-terminus and C-terminus assumed) , please look it up.
OUTPUT: 3.97

====

- experimental target: UniProt P00766
- measurement description: in vitro
- reported conditions: isolated enzyme chymotrypsin, pH 7.8, Residual peak area (%)/chymotrypsin
endpoint: remaining at 0.075 h, 60 μM (%)
Please give a number only; it is taken to be in %.

INPUT: Consider the compound shown here: CC(C)C[C@H](NC(=O)[C@H](Cc1ccc(O)cc1)NC(=O)[C@H](CCC(=O)O)NC(=O)[C@H](CCC(=O)O)NC(=O)[C@H](Cc1c[nH]c2ccccc12)NC(=O)[C@H](CO)NC(=O)[C@@H](NC(=O)[C@H](Cc1ccccc1)NC(=O)[C@@H](NC(=O)[C@@H](N)[C@@H](C)O)C(C)C)[C@@H](C)O)C(=O)N[C@@H](CC(=O)O)C(=O)N[C@@H](Cc1c[nH]c2ccccc12)C(=O)N[C@H](C(=O)O)C(C)C [PCSK9_1, reference compound] What is its recorded remaining at 0.075 h, 60 μM?
OUTPUT: 80.1

====

- experimental target: elastase (Sus scrofa, UniProt P00772)
- Sequence (P00772 27-266): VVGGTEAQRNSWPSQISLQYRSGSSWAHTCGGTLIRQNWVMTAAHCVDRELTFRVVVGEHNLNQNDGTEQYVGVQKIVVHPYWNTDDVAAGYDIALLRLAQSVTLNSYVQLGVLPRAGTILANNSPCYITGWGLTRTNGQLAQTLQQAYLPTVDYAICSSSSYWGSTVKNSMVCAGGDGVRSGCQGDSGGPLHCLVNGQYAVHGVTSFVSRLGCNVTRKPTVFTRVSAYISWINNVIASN
- measurement description: in vitro
- reported conditions: isolated enzyme elastase, pH 8, Residual peak area (%)/elastase
endpoint: remaining at 0.25 h, 60 μM (%)
Please give a number only; it is taken to be in %.

INPUT: Consider the molecule shown here: CC(C)C[C@H](NC(=O)[C@H](Cc1ccc(O)cc1)NC(=O)[C@H](CCC(=O)O)NC(=O)[C@H](CCC(=O)O)NC(=O)[C@H](Cc1c[nH]c2ccccc12)NC(=O)[C@H](CO)NC(=O)[C@@H](NC(=O)[C@H](Cc1ccccc1)NC(=O)[C@@H](NC(=O)[C@@H](N)[C@@H](C)O)C(C)C)[C@@H](C)O)C(=O)N[C@@H](CC(=O)O)C(=O)N[C@@H](Cc1c[nH]c2ccccc12)C(=O)N[C@H](C(=O)O)C(C)C [PCSK9_1, reference compound] What is its recorded remaining at 0.25 h, 60 μM?
OUTPUT: 66.8

====

Consider the following compounds and their measured Residual trypsin activity readings.
- experimental target: bovine trypsin (Bos taurus, UniProt P00760)
- Sequence (P00760 24-246): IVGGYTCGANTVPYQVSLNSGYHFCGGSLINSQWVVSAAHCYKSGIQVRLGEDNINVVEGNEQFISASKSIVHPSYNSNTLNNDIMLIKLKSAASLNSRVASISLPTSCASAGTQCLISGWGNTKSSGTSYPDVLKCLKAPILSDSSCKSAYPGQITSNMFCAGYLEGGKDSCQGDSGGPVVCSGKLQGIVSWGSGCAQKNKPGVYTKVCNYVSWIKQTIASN
- measurement description: Trypsin inhibitory activity of peptides (BApNA hydrolysis, OD405; IC50, Ki, residual activity)
- Format: biochemical
- reported conditions: peptide 0.0098 μM
Bridge positions count the residues as written; N and C are the ends. Square brackets hold non-standard residues; d marks the D form. Peptide text beside a SMILES is read from it. Nle = CCCC[C@H](N)C(=O)O
Please give a number only; it is taken to be in %.

Known Residual trypsin activity results, listed for orientation:
CC[C@H](C)[C@@H]1NC(=O)[C@@H]2CCCN2C(=O)[C@@H]2CCCN2C(=O)[C@H]([C@@H](C)CC)NC(=O)[C@H](CO)NC(=O)[C@H](CCCCN)NC(=O)[C@H](C)NC(=O)[C@H](C)NC(=O)[C@H](CCCNC(=N)N)NC(=O)CNC(=O)[C@@H](N)CSSC[C@@H](C(=O)N[C@@H](Cc2ccccc2)C(=O)O)NC1=O [BT26] (H-CGRAAKSIPPICF-OH; disulfide 1-12; N-terminus and C-terminus assumed)    99.5
CC[C@H](C)[C@@H]1NC(=O)[C@H](C)NC(=O)[C@@H]2CCCN2C(=O)[C@H]([C@@H](C)CC)NC(=O)[C@H](CO)NC(=O)[C@H](CCCCN)NC(=O)[C@H]([C@@H](C)O)NC(=O)[C@H](C)NC(=O)[C@H](CCCNC(=N)N)NC(=O)CNC(=O)[C@@H](N)CSSC[C@@H](C(=O)N[C@@H](Cc2ccccc2)C(=O)O)NC1=O [BT10] (H-CGRATKSIPAICF-OH; disulfide 1-12)    95.5
CCCC[C@@H]1NC(=O)[C@H](CCCNC(=N)N)NC(=O)CNC(=O)[C@@H](N)CSSC[C@@H](C(=O)N[C@@H](Cc2ccccc2)C(=O)O)NC(=O)[C@H]([C@@H](C)CC)NC(=O)[C@@H]2CCCN2C(=O)[C@@H]2CCCN2C(=O)[C@H]([C@@H](C)CC)NC(=O)[C@H](CO)NC(=O)[C@H](CCCCN)NC(=O)[C@H]([C@@H](C)O)NC1=O [BT50] (H-CGR[Nle]TKSIPPICF-OH; disulfide 1-12; C-terminus assumed)    105.0
CC[C@H](C)[C@@H]1NC(=O)[C@@H]2CCCN2C(=O)[C@@H]2CCCN2C(=O)[C@H]([C@@H](C)CC)NC(=O)[C@H](C)NC(=O)[C@H](CCCCN)NC(=O)[C@H]([C@@H](C)O)NC(=O)[C@H](C)NC(=O)[C@H](CCCNC(=N)N)NC(=O)CNC(=O)[C@@H](N)CSSC[C@@H](C(=O)N[C@@H](Cc2ccccc2)C(=O)O)NC1=O [BT27] (H-CGRATKAIPPICF-OH; disulfide 1-12; C-terminus assumed)    103.5

Here is the next item to consider.
INPUT: Consider the compound shown here: CC[C@H](C)[C@@H]1NC(=O)[C@H](C)NC(=O)[C@@H]2CCCN2C(=O)[C@H](CC(C)C)NC(=O)[C@H](CO)NC(=O)[C@H](CCCCN)NC(=O)[C@H]([C@@H](C)O)NC(=O)[C@H](C)NC(=O)[C@H](CCCNC(=N)N)NC(=O)CNC(=O)[C@@H](N)CSSC[C@@H](C(=O)N[C@@H](Cc2ccccc2)C(=O)O)NC1=O [BT16] (H-CGRATKSLPAICF-OH; disulfide 1-12; C-terminus assumed) What is its recorded Residual trypsin activity?
OUTPUT: 96.1
